Tested target: CCL2 labeled with Alexa Fluor 647, P13500
Sequence (P13500 24-99): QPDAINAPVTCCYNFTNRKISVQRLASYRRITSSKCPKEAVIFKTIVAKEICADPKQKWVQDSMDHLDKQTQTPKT
Measurement notes: flow cytometry on cells
Assay conditions: chain shown with the change;; parent: est. 195; read off a plot
Listed below: response values for each entry.
Entry rule: numbers only, all in MFI.

The following binders have reported results that may help.
Binder: HA-ACKR2 (epitope-tagged human ACKR2, wild type), O00590 YYYDY to YYYDF (fourth tyrosine of the motif to F) (protein) MAATASPQPLATEDADSENSSFYYYDFLDEVAFMLCRKDAVVSFGKVFLPVFYSLIFVLGLSGNLLLLMVLLRYVPRRRMVEIYLLNLAISNLLFLVTLPFWGISVAWHWVFGSFLCKMVSTLYTINFYSGIFFISCMSLDKYLEIVHAQPYHRLRTRAKSLLLATIVWAVSLAVSIPDMVFVQTHENPKGVWNCHADFGGHGTIWKLFLRFQQNLLGFLLPLLAMIFFYSRIGCVLVRLRPAGQGRALKIAAALVVAFFVLWFPYNLTLFLHTLLDLQVFGNCEVSQHLDYALQVTESIAFLHCCFSPILYAFSSHRFRQYLKAFLAAVLGWHLAPGTAQASLSSCSESSILTAQEEMTGMNDLGERQSENYPNKEDVGNKSA
response, MFI: 180
--
Binder: HA-ACKR2 (epitope-tagged human ACKR2, wild type), O00590 YYYDY to FYYDY (first tyrosine of the motif to F) (protein) MAATASPQPLATEDADSENSSFFYYDYLDEVAFMLCRKDAVVSFGKVFLPVFYSLIFVLGLSGNLLLLMVLLRYVPRRRMVEIYLLNLAISNLLFLVTLPFWGISVAWHWVFGSFLCKMVSTLYTINFYSGIFFISCMSLDKYLEIVHAQPYHRLRTRAKSLLLATIVWAVSLAVSIPDMVFVQTHENPKGVWNCHADFGGHGTIWKLFLRFQQNLLGFLLPLLAMIFFYSRIGCVLVRLRPAGQGRALKIAAALVVAFFVLWFPYNLTLFLHTLLDLQVFGNCEVSQHLDYALQVTESIAFLHCCFSPILYAFSSHRFRQYLKAFLAAVLGWHLAPGTAQASLSSCSESSILTAQEEMTGMNDLGERQSENYPNKEDVGNKSA
response, MFI: 180
--
Binder: HA-ACKR2 (epitope-tagged human ACKR2, wild type), O00590 YYYDY to YYFDY (third tyrosine of the motif to F) (protein) MAATASPQPLATEDADSENSSFYYFDYLDEVAFMLCRKDAVVSFGKVFLPVFYSLIFVLGLSGNLLLLMVLLRYVPRRRMVEIYLLNLAISNLLFLVTLPFWGISVAWHWVFGSFLCKMVSTLYTINFYSGIFFISCMSLDKYLEIVHAQPYHRLRTRAKSLLLATIVWAVSLAVSIPDMVFVQTHENPKGVWNCHADFGGHGTIWKLFLRFQQNLLGFLLPLLAMIFFYSRIGCVLVRLRPAGQGRALKIAAALVVAFFVLWFPYNLTLFLHTLLDLQVFGNCEVSQHLDYALQVTESIAFLHCCFSPILYAFSSHRFRQYLKAFLAAVLGWHLAPGTAQASLSSCSESSILTAQEEMTGMNDLGERQSENYPNKEDVGNKSA
response, MFI: 180

Kindly review the next binder as well.
Prompt: Recorded response of HA-ACKR2 (epitope-tagged human ACKR2, wild type), O00590 YYYDY to FFFDF (all four tyrosines of the motif to F) (protein) MAATASPQPLATEDADSENSSFFFFDFLDEVAFMLCRKDAVVSFGKVFLPVFYSLIFVLGLSGNLLLLMVLLRYVPRRRMVEIYLLNLAISNLLFLVTLPFWGISVAWHWVFGSFLCKMVSTLYTINFYSGIFFISCMSLDKYLEIVHAQPYHRLRTRAKSLLLATIVWAVSLAVSIPDMVFVQTHENPKGVWNCHADFGGHGTIWKLFLRFQQNLLGFLLPLLAMIFFYSRIGCVLVRLRPAGQGRALKIAAALVVAFFVLWFPYNLTLFLHTLLDLQVFGNCEVSQHLDYALQVTESIAFLHCCFSPILYAFSSHRFRQYLKAFLAAVLGWHLAPGTAQASLSSCSESSILTAQEEMTGMNDLGERQSENYPNKEDVGNKSA , please.
Completion: 26
